Origin of values: PubChem BioAssay (Tox21)

- System Name: Aromatase (Homo sapiens) (UniProt P11511)
- Sequence (P11511 whole entry, looked up): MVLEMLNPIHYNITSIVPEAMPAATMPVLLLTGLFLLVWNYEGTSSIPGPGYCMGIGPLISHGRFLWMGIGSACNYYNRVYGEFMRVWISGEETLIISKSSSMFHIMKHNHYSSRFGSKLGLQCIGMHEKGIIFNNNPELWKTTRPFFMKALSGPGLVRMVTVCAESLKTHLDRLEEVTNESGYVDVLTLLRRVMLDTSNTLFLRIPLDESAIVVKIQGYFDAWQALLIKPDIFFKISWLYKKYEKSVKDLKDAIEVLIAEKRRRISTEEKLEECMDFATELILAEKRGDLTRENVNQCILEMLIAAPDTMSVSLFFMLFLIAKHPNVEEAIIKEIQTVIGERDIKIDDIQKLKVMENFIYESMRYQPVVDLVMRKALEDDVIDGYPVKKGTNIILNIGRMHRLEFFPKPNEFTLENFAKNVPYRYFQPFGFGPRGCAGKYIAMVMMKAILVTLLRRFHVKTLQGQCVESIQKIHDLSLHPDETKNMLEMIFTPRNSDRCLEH
- Experiment Description: qHTS assay to identify aromatase inhibitors (AID 743083); further: on the % scale 0 is the no-effect control and ±100 the full control effect; nearly all actives have a fitted effect of over 55% in size
- Condition Parameters: MCF-7 aro ERE, testosterone-driven ERE luciferase, 24 h; series mostly up to 70.3 µM
Records with an inconclusive call do not appear. Active and inactive are the calls of the source. The call rests on the fitted dose curve; in most records, active means well fitted inhibition curve with a large enough effect in the repeat runs; inconclusive means weak or mixed curves; inactive means no such curve, though single readings can be large or run the other way.
Parameter: outcome

`C=C1CC[C@H](O)CC1=C/C=C1\CCC[C@]2(C)[C@@H]([C@H](C)CC[C@@H](O)C(C)(C)O)CC[C@@H]12` yielded outcome of inactive

`CC(=O)N=c1sc(S(N)(=O)=O)nn1C` has a reported outcome of inactive

get_value(item= `CC(C)=CCC/C(C)=C/C=C/C(C)=C/C=C/C(C)=C/C=C/C=C(C)/C=C/C=C(C)/C=C/C=C(\C)CCC=C(C)C` , readout=outcome) returns inactive

----------
- Experiment Description: qHTS assay for identifying genotoxic compounds that show differential cytotoxicity against isogenic chicken DT40 cell lines with known DNA damage response pathways - Rad54/Ku70 mutant cell line (AID 743015); further: nearly all actives have a fitted effect of over 60% in size
- Condition Parameters: DT40 Rad54/Ku70 mutant viability, CellTiter-Glo, 40 h; series mostly up to 66.8 µM
Records with an inconclusive call do not appear. Active and inactive are the calls of the source. The call rests on the fitted dose curve; in most records, active means well fitted cell-killing curve with a large enough effect in the repeat runs; inconclusive means weak or mixed curves; inactive means no such curve, though single readings can be large or run the other way.
Bench note: report the call from label 1 = active, label 0 = inactive

Query: How did this test come out for `C[C@]12CCC(=O)C=C1CC[C@@H]1[C@@H]2[C@@H](O)C[C@@]2(C)[C@H]1CC[C@]2(O)C(=O)COP(=O)(O)O` ?
Response: label 0

Query: Per the assay record, what outcome was assigned to `C=C1/C(=C\C=C2/CCC[C@]3(C)[C@@H]([C@H](C)OCCC(C)(C)O)CC[C@@H]23)C[C@@H](O)C[C@@H]1O` ?
Response: label 1

----------
- System Name: Estrogen receptor (Homo sapiens) (UniProt P03372)
- Sequence (P03372 whole entry, looked up): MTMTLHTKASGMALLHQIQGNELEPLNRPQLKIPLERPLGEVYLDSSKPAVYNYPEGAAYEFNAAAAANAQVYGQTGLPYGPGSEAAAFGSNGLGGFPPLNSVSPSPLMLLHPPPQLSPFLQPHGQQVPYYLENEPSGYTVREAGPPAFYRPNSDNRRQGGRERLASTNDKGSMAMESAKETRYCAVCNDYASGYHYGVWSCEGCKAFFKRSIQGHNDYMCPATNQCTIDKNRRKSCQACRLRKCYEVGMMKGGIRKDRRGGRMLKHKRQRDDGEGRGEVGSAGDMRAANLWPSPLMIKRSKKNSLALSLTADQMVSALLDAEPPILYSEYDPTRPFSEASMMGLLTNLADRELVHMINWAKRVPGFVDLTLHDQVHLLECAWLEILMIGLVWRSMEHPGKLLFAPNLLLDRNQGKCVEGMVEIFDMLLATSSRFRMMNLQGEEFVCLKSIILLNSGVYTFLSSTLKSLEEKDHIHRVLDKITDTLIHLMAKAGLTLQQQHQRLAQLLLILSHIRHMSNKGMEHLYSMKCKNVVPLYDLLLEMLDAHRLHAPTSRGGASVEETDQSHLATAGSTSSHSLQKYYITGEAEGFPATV
- Experiment Description: qHTS assay to identify small molecule agonists of the estrogen receptor alpha (ER-alpha) signaling pathway using the BG1 cell line (AID 743079); further: nearly all actives have a fitted effect of over 20% in size; on activation: on the % scale 0 is the no-effect control and ±100 the full control effect
- Condition Parameters: BG1Luc4E2 cells, ERE-luciferase agonist, 22 h
Records with an inconclusive call do not appear. Active and inactive are the calls of the source. Calls come from the whole dose curve; as a rule, active = well fitted activation curve with a large enough effect in the repeat runs; inconclusive = weak or mixed curves, or effect the other way; inactive = no such curve, though single readings can be large or run the other way.
Thanks in advance; please answer with one of these: YES for active, NO for inactive

Recorded results for 4 molecules are shown here.
Query: Tell me the assay call for `O=C(OCCO)c1ccccc1O` please.
Response: NO

Query: Tell me the recorded outcome of this test for `CCCCC/C=C\CCC(=O)N[C@H]1[C@H](Oc2c3cc4cc2Oc2ccc(cc2Cl)[C@@H](O[C@@H]2O[C@H](CO)[C@@H](O)[C@H](O)[C@H]2NC(C)=O)[C@@H]2NC(=O)[C@H](NC(=O)[C@@H]4NC(=O)[C@H]4NC(=O)[C@@H](Cc5ccc(c(Cl)c5)O3)NC(=O)[C@H](N)c3ccc(O)c(c3)Oc3cc(O)cc4c3)c3ccc(O)c(c3)-c3c(O[C@H]4O[C@H](CO)[C@@H](O)[C@H](O)[C@@H]4O)cc(O)cc3[C@@H](C(=O)O)NC2=O)O[C@H](CO)[C@@H](O)[C@@H]1O` .
Response: NO

Query: Hello, I am checking results. What call was entered for `Cc1ccc(C2(O)CCN(CCCC(=O)c3ccc(F)cc3)CC2)cc1` ?
Response: NO

Query: // outcome(item) with item = `C#C[C@]1(O)CC[C@H]2[C@@H]3CCC4=C/C(=N/O)CC[C@@H]4[C@H]3CC[C@@]21CC`
Response: YES

Continuing:
Query: Record request — test call for CN1C(=O)CN2CCc3ccccc3C2c2cc(Cl)ccc21 (stereo unspecified)
Response: NO

Query: Which outcome was assigned to `CC(C)=CCC/C(C)=C/C=C/C(C)=C/C=C/C(C)=C/C=C/C=C(C)/C=C/C=C(C)/C=C/C=C(\C)CCC=C(C)C` in this test?
Response: YES

Query: How did this test come out for CCN1C(=O)NC(c2ccccc2)C1=O (stereo unspecified) ?
Response: NO

Query: Lab log entry: `C[C@]12CCC(=O)C=C1CC[C@@H]1[C@@H]2[C@@H](O)C[C@@]2(C)[C@H]1CC[C@]2(O)C(=O)COP(=O)(O)O` — outcome as called in the assay?
Response: YES

Query: Which outcome did this test record for the molecule `Cc1onc(-c2ccccc2)c1C(=O)N[C@@H]1C(=O)N2[C@@H]1SC(C)(C)[C@@H]2C(=O)O` ?
Response: NO

Query: For `CCOC(=O)Cc1cccc(-c2cc(CCCCCCc3ccc(O[C@H]4O[C@H](COC(C)=O)[C@@H](OC(C)=O)[C@H](OC(C)=O)[C@@H]4OC(C)=O)c(-c4cccc(CC(=O)OCC)c4)c3)ccc2O[C@H]2O[C@H](COC(C)=O)[C@@H](OC(C)=O)[C@H](OC(C)=O)[C@@H]2OC(C)=O)c1` , which call appears in the assay record?
Response: NO

Query: Please state the recorded outcome for this molecule: `CCC(=O)OCC(=O)[C@@]1(OC(=O)CC)[C@H](C)C[C@H]2[C@@H]3CCC4=CC(=O)C=C[C@]4(C)[C@@]3(F)[C@@H](O)C[C@@]21C`
Response: NO

Query: // return assay outcome for `CCCC(=O)O[C@]1(C(=O)COC(=O)CC)[C@@H](C)C[C@H]2[C@@H]3CCC4=CC(=O)C=C[C@]4(C)[C@@]3(F)[C@@H](O)C[C@@]21C`
Response: NO

Query: Field: outcome | Entry: CC(O)CN(C)C (stereo unspecified)
Response: YES

Query: What is the recorded call for this molecule in the test? `CCCCCCCCCCCCCCCCCCOP(=O)([O-])OC1CC[N+](C)(C)CC1`
Response: NO

Query: Look up the recorded call for `C=Cc1c(C)c2cc3nc(cc4[nH]c(cc5nc(cc1[nH]2)C(C)=C5CCC(=O)OC)c(CCC(=O)O)c4C)[C@@]1(C)C3=CC=C(C(=O)OC)[C@H]1C(=O)OC` in this test.
Response: NO

Query: Recorded test outcome, item `O=C(O)c1cccc(/C=C2/C[C@@H]3[C@@H](/C=C/[C@@H](O)C4CCCCC4)[C@H](O)C[C@@H]3O2)c1`
Response: NO

----------
- Experiment Description: qHTS assay to identify small molecule antagonists of the estrogen receptor alpha (ER-alpha) signaling pathway using the BG1 cell line (AID 743080);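 further: BG1 cells stimulated with 17beta-estradiol alongside compound; nearly all actives have a fitted effect of over 25% in size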; further: potency means the concentration at half of the fitted maximal effect
- Condition Parameters: BG1Luc4E2 ERE-luciferase antagonist mode, luminescence; series mostly up to 70.3 µM
Records with an inconclusive call do not appear. Activity calls are given as the source filed them. The call rests on the fitted dose curve.
Parameter: Potency

Solved cases below.
Record `CC(=O)O[C@H]1C[C@@H]2CC[C@@H]3[C@H](CC[C@@]4(C)[C@H]3C[C@H](N3CC[N+](C)(C)CC3)[C@@H]4OC(C)=O)[C@@]2(C)C[C@@H]1N1CC[N+](C)(C)CC1` , field Potency: inactive

Recorded Potency (molecule NC(=O)OCC(O)COc1ccc(Cl)cc1 (configuration not stated) ): inactive

Entry `CCN(CC)c1ccc(C(=C2C=CC(=[N+](CC)CC)C=C2)c2ccccc2)cc1` , Potency reported as 5.96 µM (active)

So, CC(Oc1ccccc1)C(=O)N[C@@H]1C(=O)N2[C@@H]1SC(C)(C)[C@@H]2C(=O)O (some centres not stated) ? Its Potency was inactive

Item: `Cc1ccccc1CNc1ncnc2c1ncn2[C@@H]1O[C@H](CO)[C@@H](O)[C@H]1O` | Potency: inactive

The measured Potency associated with `O=C(CCCN1CCC(C(=O)c2ccc(F)cc2)CC1)c1ccc(F)cc1` reads inactive

Per the record, `CCOc1ccc(N=C(C)Nc2ccc(OCC)cc2)cc1` has Potency of inactive

Lab note: measured Potency of `CCOC(=O)Cc1cccc(-c2cc(CCCCCCc3ccc(O[C@H]4O[C@H](COC(C)=O)[C@@H](OC(C)=O)[C@H](OC(C)=O)[C@@H]4OC(C)=O)c(-c4cccc(CC(=O)OCC)c4)c3)ccc2O[C@H]2O[C@H](COC(C)=O)[C@@H](OC(C)=O)[C@H](OC(C)=O)[C@@H]2OC(C)=O)c1` was inactive

Please fill in: Potency reported for `CCCC(CCC)C(N)=O` = inactive

// recorded Potency for CC1(S(=O)(=O)O)CC(=O)c2ccccc2C1=O (configuration not stated) : 33.5 µM (active)

More entries:
Potency for CC(C)[C@H](N)C(=O)OCC(CO)OCn1cnc2c(=O)[nH]c(N)nc21 (some centres not stated) is inactive

Record `CC[C@H](CC[C@@H](C)[C@H]1CC[C@H]2[C@@H]3CC=C4C[C@@H](O)CC[C@]4(C)[C@H]3CC[C@]12C)C(C)C` . Reported Potency: inactive

----------
- System Name: Nuclear receptor subfamily 1 group I member 2 (Rattus norvegicus) (UniProt Q9R1A7)
- Sequence (Q9R1A7 whole entry, looked up): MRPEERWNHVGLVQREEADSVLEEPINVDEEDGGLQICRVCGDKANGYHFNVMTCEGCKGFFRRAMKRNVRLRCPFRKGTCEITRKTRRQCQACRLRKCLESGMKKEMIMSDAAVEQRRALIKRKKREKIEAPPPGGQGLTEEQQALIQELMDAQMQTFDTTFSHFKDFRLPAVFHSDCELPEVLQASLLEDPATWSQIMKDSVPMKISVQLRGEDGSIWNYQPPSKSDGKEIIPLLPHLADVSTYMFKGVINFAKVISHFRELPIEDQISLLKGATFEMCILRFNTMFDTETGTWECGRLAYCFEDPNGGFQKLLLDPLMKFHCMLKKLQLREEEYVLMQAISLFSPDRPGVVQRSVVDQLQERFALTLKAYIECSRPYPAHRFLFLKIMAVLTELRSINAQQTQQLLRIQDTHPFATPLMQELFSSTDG
- Experiment Description: Rat pregnane X receptor (rPXR) activation by small molecules, qHTS assay (AID 1346983); further: on the % scale 0 is the no-effect control and ±100 the full control effect; nearly all actives have a fitted effect of over 20% in size
- Condition Parameters: rPXR luciferase reporter cells, One-Glo luminescence, 24 h; stronger effect = higher value
Records with an inconclusive call do not appear.
Parameter: max activation (%)
Report the figure in % without appending any unit label.

Below are worked cases with known answers.
response.value for `O=[N+]([O-])O[C@@H]1CO[C@H]2[C@@H]1OC[C@@H]2O` (field: max activation) = -3.54

According to the records, this compound `CCCCCCCCCCCCCCCCCCCCCC(=O)Nc1ccn([C@@H]2O[C@H](CO)[C@@H](O)[C@@H]2O)c(=O)n1` displays max activation of -4.2

Given item `N[C@H](CC(=O)O)C(=O)O` , the value recorded as its max activation is 2.19

The measured max activation associated with `NC(=O)c1ccc[n+]([C@@H]2O[C@H](COP(=O)([O-])OP(=O)(O)OC[C@H]3O[C@@H](n4cnc5c(N)ncnc54)[C@H](O)[C@@H]3O)[C@@H](O)[C@H]2O)c1` reads -1.3

Record `CC(C)=CCC/C(C)=C/C=C/C(C)=C/C=C/C(C)=C/C=C/C=C(C)/C=C/C=C(C)/C=C/C=C(\C)CCC=C(C)C` . Reported max activation: 2.83

Given item `CC[C@H](C)[C@@H]1NC(=O)[C@H](Cc2ccc(O)cc2)NC(=O)[C@@H](N)CSSC[C@@H](C(=O)N2CCC[C@H]2C(=O)N[C@@H](CC(C)C)C(=O)NCC(N)=O)NC(=O)[C@H](CC(N)=O)NC(=O)[C@H](CCC(N)=O)NC1=O` , the value recorded as its max activation is 0.0402

So, `Cc1cc(-c2ccc(N=Nc3c(S(=O)(=O)O)cc4cc(S(=O)(=O)O)cc(N)c4c3O)c(C)c2)ccc1N=Nc1c(S(=O)(=O)O)cc2cc(S(=O)(=O)O)cc(N)c2c1O` ? Its max activation was -20.2

max activation recorded for this compound, CC(O)[C@@H]1NC(=O)[C@H](Cc2ccccc2)NC(=O)[C@H](C(C)O)NC(=O)[C@H](CCCCN)NC(=O)[C@H](Cc2c[nH]c3ccccc23)NC(=O)[C@H](Cc2ccccc2)NC(=O)[C@H](Cc2ccccc2)NC(=O)[C@H](CC(N)=O)NC(=O)[C@H](CCCCN)NC(=O)[C@@H](NC(=O)CNC(=O)[C@H](C)N)CSSC[C@@H](C(=O)O)NC(=O)[C@H](CO)NC1=O (stereo not given in full) , is -3.53

Others:
Please fill in: max activation reported for `CC[C@@]1(O)C[C@H](O[C@H]2C[C@H](N(C)C)[C@H](O[C@H]3C[C@H](O)[C@H](O[C@H]4CCC(=O)[C@H](C)O4)[C@H](C)O3)[C@H](C)O2)c2c(cc3c(c2O)C(=O)c2c(O)cccc2C3=O)[C@H]1C(=O)OC` = -18.5

Documented max activation of `C#C[C@]1(O)CC[C@H]2[C@@H]3CCC4=C/C(=N/O)CC[C@@H]4[C@H]3CC[C@@]21CC` : 6.76

What the record says about CCCCC(O)c1ccccc1 (stereo not given) : max activation is -0.82

get_value(item= CN1c2cc(O)c(N=NC(N)=O)cc2CC1S(=O)(=O)O (stereo not given) , readout=max activation) returns 0.153

Reported max activation of `COc1ccc(C[C@H](N)C(=O)N[C@H]2[C@@H](O)[C@H](n3cnc4c(N(C)C)ncnc43)O[C@@H]2CO)cc1` : -3.7

Lab book: max activation of `Clc1cc(Cl)c(OCC#CI)cc1Cl` noted as -1.32

For reference, reported max activation for `CCOC(=O)Oc1c(OC)cc(C(=O)O[C@@H]2C[C@@H]3CN4CCc5c([nH]c6cc(OC)ccc56)[C@H]4C[C@@H]3[C@H](C(=O)OC)[C@H]2OC)cc1OC` stands at -0.121

Measured max activation, `[O]=[Bi][O][Bi]=[O]` : -2.85
